Where these numbers come from: patent US7078195B2

System: CNS GC 4538
Assay: Broth dilution MIC
Assay type: cell-based
Conditions: Mueller-Hinton broth, 18 hours at 35° C.
PARAMETER_MEASURED: Antimicrobial Activity (MIC)

COC1C(OC(C(NCCCNC(=O)C(CC(C)C)NC(=O)C(NC(=O)NC(C(=O)O)C(C)C)C2CCNC(=N)N2)C(=O)O)C2OC(n3ccc(=O)[nH]c3=O)C(O)C2O)OC(CN)C1O (centres unmarked) [AA-896-D1] :: >32 µg/mL
CC(C)C(NC(=O)NC(C(=O)NC(C(=O)NCCCNC(C(=O)O)C(OC1CC(O)C(CN)O1)C1OC(n2ccc(=O)[nH]c2=O)C(O)C1O)C(O)C(C)C)C1CCNC(=N)N1)C(=O)O (centres unmarked) :: >32 µg/mL
CC(C)CCCCC(=O)OC(C(C)C)C(NC(=O)C(NC(=O)NC(C(=O)O)C(C)C)C1CCNC(=N)N1)C(=O)NCCCNC(C(=O)O)C(OC1OC(CN)C(O)C1O)C1OC(n2ccc(=O)[nH]c2=O)C(O)C1O (centres unmarked) :: >64 µg/mL
CC(C)C(NC(=O)NC(C(=O)NC(C(=O)NCCCNC(C(=O)O)C(O[C@@H]1O[C@H](CN)[C@@H](O)[C@H]1O)C1OC(n2ccc(=O)[nH]c2=O)C(O)C1O)C(O)C(C)C)C1CCNC(=N)N1)C(=O)O (some centres unmarked) :: >32 µg/mL

query: Would you mind telling me what Antimicrobial Activity (MIC) value was observed for COC1C(OC(C(NCCCNC(=O)C(NC(=O)C(NC(=O)NC(C(=O)O)C(C)C)C2CCNC(=N)N2)C(OC(=O)CCCCC(C)C)C(C)C)C(=O)O)C2OC(n3ccc(=O)[nH]c3=O)C(O)C2O)OC(CN)C1O (centres unmarked) ?
result: 64 µg/mL

* * *

System: S. aureus GC 4536
Assay: Broth dilution MIC
Type: cell-based
Settings: Mueller-Hinton broth, 18 hours at 35° C.
Reported Antimicrobial Activity (MIC) values follow for various compounds

Worked cases, Antimicrobial Activity (MIC) given:
COC1C(OC(C(NCCCNC(=O)C(NC(=O)C(NC(=O)NC(C(=O)O)C(C)C)C2CCNC(=N)N2)C(OC(=O)CCCCCC(C)C)C(C)C)C(=O)O)C2OC(n3ccc(=O)[nH]c3=O)C(O)C2O)OC(CN)C1O (stereo not shown) :: 64 µg/mL
COC1C(OC(C(NCCCNC(=O)C(CC(C)C)NC(=O)C(NC(=O)NC(C(=O)O)C(C)C)C2CCNC(=N)N2)C(=O)O)C2OC(n3ccc(=O)[nH]c3=O)C(O)C2O)OC(CN)C1O (stereo not shown) [AA-896-D1] :: >32 µg/mL

query: Would you mind telling me what Antimicrobial Activity (MIC) value was observed for CC(C)CC(NC(=O)C(NC(=O)NC(C(=O)O)C(C)C)C1CCNC(=N)N1)C(=O)NCCCNC(C(=O)O)C(OC1OC(CN)C(O)C1O)C1OC(n2ccc(=O)[nH]c2=O)C(O)C1O (stereo not shown) [AA-896-D2] ?
result: >32 µg/mL

* * *

Test system: CNS GC 4537
Experiment: Broth dilution MIC
Assay type: cell-based
Settings: Mueller-Hinton broth, 18 hours at 35° C.
Reported Antimicrobial Activity (MIC) values follow for various molecules

Worked cases, Antimicrobial Activity (MIC) given:
CC(C)CCCCC(=O)OC(C(C)C)C(NC(=O)C(NC(=O)NC(C(=O)O)C(C)C)C1CCNC(=N)N1)C(=O)NCCCNC(C(=O)O)C(OC1OC(CN)C(O)C1O)C1OC(n2ccc(=O)[nH]c2=O)C(O)C1O (stereo not shown) [AA-896-B7] :: >64 µg/mL
COC1C(OC(C(NCCCNC(=O)C(NC(=O)C(NC(=O)NC(C(=O)O)C(C)C)C2CCNC(=N)N2)C(O)C(C)C)C(=O)O)C2OC(n3ccc(=O)[nH]c3=O)C(O)C2O)OC(CN)C1O (stereo not shown) [AA-896-C1] :: >32 µg/mL
CC(C)CC(NC(=O)C(NC(=O)NC(C(=O)O)C(C)C)C1CCNC(=N)N1)C(=O)NCCCNC(C(=O)O)C(OC1OC(CN)C(O)C1O)C1OC(n2ccc(=O)[nH]c2=O)C(O)C1O (stereo not shown) [AA-896-D2] :: >32 µg/mL
COC1C(OC(C(NCCCNC(=O)C(NC(=O)C(NC(=O)NC(C(=O)O)C(C)C)C2CCNC(=N)N2)C(OC(=O)CCCCCC(C)C)C(C)C)C(=O)O)C2OC(n3ccc(=O)[nH]c3=O)C(O)C2O)OC(CN)C1O (stereo not shown) [AA-896-B4] :: 64 µg/mL
COC1C(OC(C(NCCCNC(=O)C(NC(=O)C(NC(=O)NC(C(=O)O)C(C)C)C2CCNC(=N)N2)C(OC(=O)CCCCC(C)C)C(C)C)C(=O)O)C2OC(n3ccc(=O)[nH]c3=O)C(O)C2O)OC(CN)C1O (stereo not shown) [AA-896-B6] :: >64 µg/mL

query: Would you mind telling me what Antimicrobial Activity (MIC) value was observed for CC(C)CC(NC(=O)C(NC(=O)NC(C(=O)O)C(C)C)C1CCNC(=N)N1)C(=O)NCCCNC(C(=O)O)C(OC1CC(O)C(CN)O1)C1OC(n2ccc(=O)[nH]c2=O)C(O)C1O (stereo not shown) [AA-896-D3] ?
result: >32 µg/mL

query: Would you mind telling me what Antimicrobial Activity (MIC) value was observed for COC1C(OC(C(NCCCNC(=O)C(CC(C)C)NC(=O)C(NC(=O)NC(C(=O)O)C(C)C)C2CCNC(=N)N2)C(=O)O)C2OC(n3ccc(=O)[nH]c3=O)C(O)C2O)OC(CN)C1O (stereo not shown) [AA-896-D1] ?
result: >32 µg/mL

query: Would you mind telling me what Antimicrobial Activity (MIC) value was observed for CC(C)C(NC(=O)NC(C(=O)NC(C(=O)NCCCNC(C(=O)O)C(OC1CC(O)C(CN)O1)C1OC(n2ccc(=O)[nH]c2=O)C(O)C1O)C(O)C(C)C)C1CCNC(=N)N1)C(=O)O (stereo not shown) [AA-896-C3] ?
result: >32 µg/mL

query: Would you mind telling me what Antimicrobial Activity (MIC) value was observed for CCC(C)CCCCC(=O)OC(C(C)C)C(NC(=O)C(NC(=O)NC(C(=O)O)C(C)C)C1CCNC(=N)N1)C(=O)NCCCNC(C(=O)O)C(O[C@@H]1O[C@H](CN)[C@@H](O)[C@H]1OC)C1OC(n2ccc(=O)[nH]c2=O)C(O)C1O (stereo partly shown) [AA-896-B3] ?
result: >32 µg/mL

query: Would you mind telling me what Antimicrobial Activity (MIC) value was observed for CC(C)C(NC(=O)NC(C(=O)NC(C(=O)NCCCNC(C(=O)O)C(O[C@@H]1O[C@H](CN)[C@@H](O)[C@H]1O)C1OC(n2ccc(=O)[nH]c2=O)C(O)C1O)C(O)C(C)C)C1CCNC(=N)N1)C(=O)O (stereo partly shown) [AA-896-C2] ?
result: >32 µg/mL

* * *

Tested on: E. coli GC 3226
Test: Broth dilution MIC
Assay type: cell-based
Conditions: Mueller-Hinton broth, 18 hours at 35° C.
PARAMETER_MEASURED: Antimicrobial Activity (MIC) (µg/mL)

Worked cases, Antimicrobial Activity (MIC) given:
CC(C)CC(NC(=O)C(NC(=O)NC(C(=O)O)C(C)C)C1CCNC(=N)N1)C(=O)NCCCNC(C(=O)O)C(OC1OC(CN)C(O)C1O)C1OC(n2ccc(=O)[nH]c2=O)C(O)C1O (centres unmarked) [AA-896-D2] :: 16
CC(C)C(NC(=O)NC(C(=O)NC(C(=O)NCCCNC(C(=O)O)C(O[C@@H]1O[C@H](CN)[C@@H](O)[C@H]1O)C1OC(n2ccc(=O)[nH]c2=O)C(O)C1O)C(O)C(C)C)C1CCNC(=N)N1)C(=O)O (some centres unmarked) :: 16
CCC(C)CCCCC(=O)OC(C(C)C)C(NC(=O)C(NC(=O)NC(C(=O)O)C(C)C)C1CCNC(=N)N1)C(=O)NCCCNC(C(=O)O)C(O[C@@H]1O[C@H](CN)[C@@H](O)[C@H]1OC)C1OC(n2ccc(=O)[nH]c2=O)C(O)C1O (some centres unmarked) :: 32

A. COC1C(OC(C(NCCCNC(=O)C(NC(=O)C(NC(=O)NC(C(=O)O)C(C)C)C2CCNC(=N)N2)C(OC(=O)CCCCC(C)C)C(C)C)C(=O)O)C2OC(n3ccc(=O)[nH]c3=O)C(O)C2O)OC(CN)C1O (centres unmarked)
B. CC(C)CC(NC(=O)C(NC(=O)NC(C(=O)O)C(C)C)C1CCNC(=N)N1)C(=O)NCCCNC(C(=O)O)C(OC1CC(O)C(CN)O1)C1OC(n2ccc(=O)[nH]c2=O)C(O)C1O (centres unmarked)
query: Rank A against B by their Antimicrobial Activity (MIC) values and give the higher one. Which one? Tell me its label.
result: A
(A: 64 µg/mL, B: 32 µg/mL)
